Data origin: the OligoGym collection

Biological target: IRF5
Conditions: ASO, KARPAS-229, 4 µM
After the bases stand the sugars from the 5' end (letter, count) and the backbone: PS all phosphorothioate, else s phosphorothioate and o phosphodiester by linkage. Methylation of C is not given here. e = 2'-O-(2-methoxyethyl) (MOE); k = constrained ethyl (cEt); d = 2'-deoxy (DNA)
Readout Name: target mRNA inhibition (%)

Sequence Entry	Unit Symbol	Experimental Result
TGTCTAGTGTCATGGA (sugars k3 d9 k3 e1, PS)	%	39
AAGGGCACAGCGCAGG (sugars kkddddddddddkeke, PS)	%	0
TCCAATTTTGCATTCC (sugars kkkdddddddddkeke, PS)	%	14
CTTCTGCAGGGAGTCA (sugars kkkddddddddkekek, PS)	%	0
GGAAGTGAGTCTCAAA (sugars kkdddddddddkekek, PS)	%	25
GGTCTGGCCCTTTTGG (sugars kdddddddddkekeke, PS)	%	0
AGATGGTGTTATCTCC (sugars kkkddddddddkekek, PS)	%	0
GTGAGTCTCAAACCAG (sugars kdddddddddkekeke, PS)	%	0
ACTGACACAGGCGGAT (sugars kkddddddddkekekk, PS)	%	0
AGATGGTGTTATCTCC (sugars kddddddddddkekek, PS)	%	0
TGAGTCTCAAACCAGG (sugars k3 d9 k3 e1, PS)	%	0
TGTCTAGTGTCATGGA (sugars kkdddddddddkdkdk, PS)	%	40
GAGTGAGACGAGCAAA (sugars kdddddddddkekeke, PS)	%	6
CTAGTGTCATGGAATT (sugars k3 d10 k3, PS)	%	34
ATGGTGTTATCTCCGT (sugars kdddddddddkekeke, PS)	%	0
TTTCTTGTCTAGTGTC (sugars k3 d10 k3, PS)	%	53
CTTGATTCCAATTTTG (sugars k3 d10 k3, PS)	%	20
GGTTCTTGGACTCTCA (sugars kkkddddddddkdkdk, PS)	%	28
GGGAGTCAGACCTACC (sugars k3 d10 k3, PS)	%	0
ACATCTCCACATCAGT (sugars kkddddddddkekekk, PS)	%	15
ACATCCATCAATGAGG (sugars k3 d10 k3, PS)	%	0
TTATCTCCGTCCTGGC (sugars k3 d9 k3 e1, PS)	%	0
CCATTCTATGCCTTTT (sugars kkdddddddddkdkdk, PS)	%	46
TGCACTGACACAGGCG (sugars k3 d9 k3 e1, PS)	%	0
GTGTATTTCCCTGTCT (sugars k2 d8 e4 k2, PS)	%	0
GGTGTATTTCCCTGTC (sugars kkddddddddkekekk, PS)	%	0
AGACGAGCAAAGGGTG (sugars k3 d10 k3, PS)	%	35
AGCTTGGTCTTGACCT (sugars kkkddddddddkdkdk, PS)	%	12
GAGTCATGGGCTGAGG (sugars kkdddddddddkdkdk, PS)	%	31
ATCACCACTGTGTACC (sugars kkdddddddddkekek, PS)	%	0
ACCACTGTGTACCCCA (sugars kkkddddddddkekek, PS)	%	6
CACTTGATTCCAATTT (sugars k3 d10 k3, PS)	%	36
CCCAATGCAACATCCA (sugars kkkddddddddkdkdk, PS)	%	0
CAGGTTCTTGGACTCT (sugars kkkddddddddkekek, PS)	%	0
CATTCCATATACACAC (sugars kddddddddddkekek, PS)	%	31
